method-summary: qHTS RealTime-Glo MT Cell Viability Assay in HEK293 cells - 8 hour (AID 1224887); note: nearly all actives have a fitted effect of over 50% in size
measurement-parameters: RealTime-Glo luminescence; series mostly up to 76.8 µM
Excerpt: U.S. Tox21 Program National Center for Advancing Translational Sciences [NCATS] NIH Chemical Genomics Center [NCGC] U.S. Environmental Protection Agency [EPA] National Institutes of Environmental Health Sciences [NIEHS] National Toxicology Program [NTP] U.S. Food and Drug Administration [FDA] Tox21 Assay Overview: Measure of cell viability is critical in the cell-base assay. Analysis of cell viability is necessary for the characterization of cell responses to cytotoxic drugs and environmental stress. […]
Inconclusive results are not listed. Activity calls are given as the source filed them. Calls come from the whole dose curve; as a rule, active = well fitted cell-killing curve with a large enough effect in the repeat runs; inconclusive = weak or mixed curves, or effect the other way; inactive = flat fitted curve, though single readings scatter.
# valid calls are class 1 = active, class 0 = inactive; nothing else

Some solved entries appear below for comparison.
O=C(/C=C/c1ccc(O)c(O)c1)O[C@@H]1C[C@@](OC(=O)/C=C/c2ccc(O)c(O)c2)(C(=O)O)C[C@@H](O)[C@@H]1O : class 0
O=C(/C=C/c1ccccc1)OCCc1ccccc1 : class 0
CC/C=C1/OC(=O)c2ccccc21 : class 0

Can you look up the reported call for Nc1ncnc2c1ncn2[C@H]1CC[C@@H](CO)O1 for me?
class 0

State the result this test recorded for CC(=O)[C@H]1[C@H](C#N)C[C@H]2[C@@H]3CC=C4C[C@@H](O)CC[C@]4(C)[C@H]3CC[C@@]21C .
class 0

Please state the recorded outcome for this molecule: O=C1c2ccccc2C(=O)C1c1nc2ccccc2c(Br)c1O
class 0

Lab log entry: CCC(=O)C1CC(C(C)C)CC=C1C (configuration not stated) — outcome as called in the assay?
class 0

Given Oc1cc2c(cc1O)[C@H]1c3ccc(O)c(O)c3OC[C@@]1(O)C2 , state the outcome it received in this test.
class 1

# lookup: test call for CCCCCCNC(=O)n1cc(F)c(=O)[nH]c1=O
class 0

Test call, this molecule: CCCCCC[C@@H](O)C/C=C\CCCCCCCC(=O)O
class 0

Check the results log: what was the call for CC(=O)c1ccc([N+](=O)[O-])cc1 ?
class 0

Hey, what did the test say about CC(CN(C)C)C(C)(O)Cc1ccc(Cl)cc1 (configuration not stated) ?
class 0

Status in this test for Cc1c(C)c2c(c(C)c1OC(=O)CCC(=O)OCCO)CC[C@@](C)(CCC[C@H](C)CCC[C@H](C)CCCC(C)C)O2 ?
class 0

Returns: the outcome recorded for CC(C)C(O)(c1ccc(OC(F)(F)F)cc1)c1cncnc1 (configuration not stated) in this assay.
class 0

Could you check what this test reported for CCOC(C)=O ?
class 0

Would you mind telling me which call this test gave O=C(O)C[C@H](NC(=O)OCc1ccccc1)C(=O)O ?
class 0

====

method-summary: qHTS assay to identify small molecule antagonists of the estrogen receptor beta (ER-beta) signaling pathway - cell viability counter screen (AID 1259382); note: nearly all actives have a fitted effect of over 55% in size
measurement-parameters: ER-beta-UAS-bla HEK293T viability, CellTiter-Glo luminescence, 16 h; series mostly up to 92.4 µM
Inconclusive results are not listed. Active and inactive are the calls of the source. The call rests on the fitted dose curve; in most records, active means well fitted cell-killing curve with a large enough effect in the repeat runs; inconclusive means weak or mixed curves; inactive means flat fitted curve, though single readings scatter.
Could you please pick one outcome from this set? true for active, false for inactive

Consider the worked cases shown below.
C[C@@H](O[C@H]1OCCN(Cc2n[nH]c(=O)[nH]2)[C@H]1c1ccc(F)cc1)c1cc(C(F)(F)F)cc(C(F)(F)F)c1 : true
CCOc1ccccc1O[C@H](c1ccccc1)[C@H]1CNCCO1 : false
CCCCCCCCN : false
C[C@]12CC[C@@H]3c4ccc(O)cc4CC[C@H]3[C@@H]1CC[C@@H]2OC(=O)CCC1CCCC1 : false

Just curious, what result did O=C1Cc2cc(Cl)ccc2N1 get here?
false

Please state the recorded outcome for this compound: CC(C)COCC(CN(Cc1ccccc1)c1ccccc1)N1CCCC1 (configuration not stated)
true

Any idea what this test logged for NNC(=O)CP(=O)(c1ccccc1)c1ccccc1 ?
false

Look up the recorded call for C/C=C(/C(=C/C)c1ccc(O)cc1)c1ccc(O)cc1 in this test.
false

Hey, what did the test say about CCCCCCCC/C=C\CCCCCCCCCCCC(=O)O ?
false

GET /call?item= Cc1ccccc1S returns the recorded outcome of this test.
false

What call does the record list for CC(C)C=O ?
false
